Where do the numbers come from? From patent US20180280528A1.

Exercise: for every item that follows, state its recorded Cmax.
Experiment: Pharmacokinetics in dogs
Conditions: beagle, dog, in vivo, sc, 2.4 mg/kg
Report only the number, with the unit nM understood.

# lookup: Cmax of N=c1[nH]c(N)nc2ncc(CNc3ccc(C(=O)N[C@@H](CCC(=O)NNC(=O)OCCSSC[C@@H](NC(=O)[C@H](CCC(=O)NC[C@H](O)[C@@H](O)[C@H](O)[C@H](O)CO)NC(=O)[C@@H](CCC(=O)O)NC(=O)[C@H](CCC(=O)NC[C@H](O)[C@@H](O)[C@H](O)[C@H](O)CO)NC(=O)[C@@H](CCC(=O)O)NC(=O)[C@H](CCC(=O)NC[C@H](O)[C@@H](O)[C@H](O)[C@H](O)CO)NC(=O)CC[C@H](NC(=O)c4ccc(NCc5cnc6nc(N)[nH]c(=O)c6n5)cc4)C(=O)O)C(=O)O)C(=O)O)cc3)nc12 [EC1669, reference compound]
1390

Also need Nc1nc(N)c2nc(CNc3ccc(C(=O)N[C@@H](CCC(=O)O)C(=O)O)cc3)cnc2n1 [EC1886, aminopterin, reference compound] , thanks.
9.41
